Measured composite z-score, listed per entry for reference.
Molecular target: Concanavalin-A (Canavalia ensiformis)
Assay: ConA small-molecule binders, primary screen, artefact control for SMM control protein annotation, biochemical, small-molecule microarray, Alexa647 label, 635 nm (AID 1127);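 note: z combines 667 nm emission intensity with signal-to-noise across three replicate slides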
Details: ConA-A647 binding fluorescence, higher = more signal
quantity: composite z-score

INSERT INTO measurements (compound, quantity, result) VALUES
  ('COc1cccc([C@@H]2[C@@H](C)CC[C@H]3C(=O)N(C)[C@@H](C(C)C)C(=O)N23)c1', 'composite z-score', 0.416),
  ('CCCCO[C@H]1C[C@H]2C(Br)=C[C@@]1(CO)C(=O)[C@]21CO1', 'composite z-score', 0.153),
  ('CCOC(=O)C[C@H]1[C@H](OC(=O)c2cc3ccccc3oc2=O)[C@@H](NC(=O)c2ccc3ccccc3c2)c2cc(OCCCO)ccc2N1C(=O)c1ccc2ccccc2n1', 'composite z-score', 0.536),
  ('COCCOC(=O)N1C(=O)[C@@]2(c3cc(C#CC4=CCCCC4)ccc31)[C@H](C(=O)NC[C@H](O)c1ccccc1)[C@H]1C(=O)O[C@H](c3ccccc3)[C@H](c3ccccc3)N1[C@@H]2c1ccccc1OCCO', 'composite z-score', 1.09),
  ('CO[C@H]1COC(=O)CC=C[C@H](C)[C@@H](OC)COC(=O)[C@H](Cc2ccccc2)NC(=O)CC=C[C@@H]1C', 'composite z-score', -2.53),
  ('[N-]=[N+]=Nc1ccccc1C[C@@]1(C(=O)N2CCOCC2)N=C(c2ccc(OCCCO)cc2)O[C@@H]1c1ccccc1N=[N+]=[N-]', 'composite z-score', 1.1),
  ('O=C1O[C@@H](c2ccccc2)[C@@H](c2ccccc2)N2[C@@H](c3ccc(O)cc3)[C@]3(C(=O)Nc4ccc(C#CC5(O)CCCCCC5)cc43)[C@@H](C(=O)Nc3nc4ccccc4s3)[C@H]12', 'composite z-score', 1.08),
  ('COc1ccc(-c2ccccc2[C@@H]2N[C@H](C(=O)O)CC[C@H]2C)cc1', 'composite z-score', 0.301),
  ('COc1ccc([C@H]2C[C@H]3C(Br)=C[C@]2(OC)C(=O)[C@]32CO2)cc1', 'composite z-score', 0.0428),
  ('O=C/C=C/c1ccc(/C=C/c2ccccc2)cc1', 'composite z-score', -0.342),
  ('CN1C(=O)C2C=CC(C(O)c3ccc(N(C)C)cc3)N(Nc3ccc([N+](=O)[O-])cc3[N+](=O)[O-])C2C1=O (stereo not drawn)', 'composite z-score', 0.884),
  ('O=C(NCc1ccccc1)[C@@]1(Cc2ccccc2)COC(c2ccc(OCCCO)cc2)=N1', 'composite z-score', 0.865),
  ('CCCC[C@@H]1C[C@H]1[C@@H](NC(=O)c1cccs1)c1ccc(Cl)cc1', 'composite z-score', -0.782),
  ('CCOC(=O)C1=CC[C@@H](c2ccccc2)N(S(=O)(=O)c2ccc(C)cc2)[C@H]1C', 'composite z-score', 1.05),
  ('CC(C)[Si]1(C(C)C)O[C@@H](c2ccccc2)c2cc(C3CC3)nc(-c3ccc(Oc4ccccc4)cc3)c21', 'composite z-score', -1.27),
  ('C=CC[C@]1(C(=O)NCC(O)CO)N=C(c2ccc(OCCCO)cc2)O[C@H]1c1ccccc1 (stereo partly drawn)', 'composite z-score', -0.49),
  ('O=C(CS)NCCCCCCNC(=O)[C@@H]1C[C@@H]2C(=O)N[C@@H](Cc3ccccc3)C(=O)N2[C@@H]1c1ccc(O)cc1', 'composite z-score', 0.938),
  ('C=CCC(OC(C)=O)[C@@H]1[C@@H](N(Cc2ccc(-c3cccc(C(F)(F)F)c3)o2)C(=O)Cc2ccc(F)cc2)c2cc(OCCCO)ccc2N1C(=O)c1ccc(-c2ccccc2)cc1 (stereo partly drawn)', 'composite z-score', -1.04),
  ('C[C@@H]1NC(=O)[C@H](Cc2ccccc2)NC(=O)[C@@]23C(=O)N[C@@H](Cc4ccccc4)C2[C@H](C)[C@@]2(C)O[C@H]2C3/C=C/C/C=C\CNC1=O (stereo partly drawn)', 'composite z-score', -0.265),
  ('COCCOC(=O)N1C(=O)[C@@]2(c3cc(C#CCNC(N)=O)ccc31)[C@H](c1ccc(OCCO)cc1)N1[C@H](c3ccccc3)[C@H](c3ccccc3)OC(=O)[C@H]1[C@@H]2C(=O)N1CCCCCCC1', 'composite z-score', 0.669),
  ('O=C1O[C@H](c2ccccc2)[C@H](c2ccccc2)N2[C@H]1[C@@H](C(=O)NC[C@H](O)c1ccccc1)[C@]1(C(=O)Nc3ccc(C#CC4(O)CCCCCC4)cc31)[C@H]2c1ccc(OCCO)cc1', 'composite z-score', 1.16),
  ('O=[N+]([O-])c1ccc(C[n+]2ccc3ccc(O)cc3c2)o1', 'composite z-score', 1.11),
  ('CCOC(=O)C[C@H]1[C@H](OC(=O)c2cc3ccccc3oc2=O)[C@@H](NC(=O)C2CCCCC2)c2cc(OCCCO)ccc2N1C(=O)c1ccc2ccccc2n1', 'composite z-score', 0.953),
  ('C=CCN1C(=O)[C@@]2(O[C@@H](CCn3cc([C@H](O)c4ccccc4)nn3)[C@H]([Si](C)(C)c3ccc(OC)cc3)[C@H]2C)c2cc(N3CCOC3=O)ccc21', 'composite z-score', -0.559),
  ('CC[C@H]1C2=C3C(CC[C@H]4C(OC)OC[C@](C)([C@@H]34)N(C(=O)OC(C)(C)C)C2)C(CO)C1CO (stereo partly drawn)', 'composite z-score', 1.16),
  ('O=C1O[C@@H](c2ccccc2)[C@@H](c2ccccc2)N2[C@@H](c3ccccc3OCCO)[C@]3(C(=O)Nc4ccc(C#CC5=CCCCC5)cc43)[C@@H](C(=O)O)[C@H]12', 'composite z-score', 1.08),
  ('COc1ccc([Si](C)(C)[C@H]2[C@H](CCO)O[C@@]3(C(=O)N(Cc4ccccc4)c4ccc(N5C(=O)c6cccc7cccc5c67)cc43)[C@@H]2C)cc1', 'composite z-score', 0.386),
  ('CCC(=O)[C@]12O[C@@]3([C@@H]4C(=O)OCC[C@@H]41)N(CC)C(C)=C(C(=O)OC)[C@@H](c1ccccc1)N3C2=O', 'composite z-score', -0.0306);

The origin of these recorded values is PubChem BioAssay.
